Test system: mRNA expressed from the genes (A) to (D) in rat liver
protocol-description: Behavior of genes (mRNA expression level, oligo-DNA microarray) in rat liver after 28-day oral administration
Assay type: in vivo
reported-conditions: gene group (B), Unigene No. Rn.19329
measurement-name: Behavior of gene caused by administration of chemical substance, Gene No. 2045

Nc1ccc(N)c(Cl)c1.O=S(=O)(O)O; +
CC(=O)Nc1ccc(O)cc1; −
IC(I)I [TS039, Iodoform]; −
Clc1ccc(C(c2ccc(Cl)cc2)C(Cl)(Cl)Cl)cc1; +

Kindly state the measured Behavior of gene caused by administration of chemical substance, Gene No. 2045 obtained for "CC(=O)Oc1ccccc1C(=O)O" with mRNA expressed from the genes (A) to (D) in rat liver. −

Kindly state the measured Behavior of gene caused by administration of chemical substance, Gene No. 2045 obtained for NC(=O)c1ccccc1C(N)=O [TS073, Phthalamide] with mRNA expressed from the genes (A) to (D) in rat liver. +

###

System: mRNA expressed from the genes (A) to (D) in rat liver
protocol-description: Behavior of genes (mRNA expression level, oligo-DNA microarray) in rat liver after 28-day oral administration
Type: in vivo
reported-conditions: Gene No. 4218, Rn.167075, group (A)
measurement-name: Behavior of gene caused by administration of chemical substance

Nc1ccc(N=Nc2ccccc2)cc1; −
O=[N+]([O-])c1ccc2ccc3cccc4ccc1c2c34; −
C=CCc1ccc(OC)c(OC)c1; −
CC(=O)Nc1cccc2c1-c1ccccc1C2; −
Cc1ccccc1[N+](=O)[O-]; +

Could you now consider this next molecule?
For the molecule shown here, "O=CCCCC=O" , give the reported Behavior of gene caused by administration of chemical substance. −

###

Tested on: mRNA expressed from the genes (A) to (D) in rat liver
protocol-description: Behavior of genes (mRNA expression level, oligo-DNA microarray) in rat liver after 28-day oral administration
Format: in vivo
reported-conditions: gene group (C), Unigene No. Rn.118529
measurement-name: Behavior of gene caused by administration of chemical substance, Gene No. 4973

// solved cases for Behavior of gene caused by administration of chemical substance, Gene No. 4973 follow
OC[C@@H](O)[C@@H](O)[C@H](O)[C@H](O)CO [TS009, D-Mannitol]; −
CCC[N+](=O)[O-] [TS036, 1-Nitropropane]; +
CC(=O)Nc1ccc(O)cc1 [TS031, Acetaminophen]; −
Cc1cc(N)ccc1N.O=S(=O)(O)O [TS060, 2,5-Toluenediamine SO4]; −
O=c1c(O)c(-c2ccc(O)c(O)c2)oc2cc(O)cc(O)c12 [TS037, Quercetin]; −
Cc1ccc(N)cc1Cl [TS080, 3-Chloro-p-toluidine]; +

For the compound shown here, O=C(OC[C@H]1O[C@@H](OC(=O)c2cc(O)c(O)c(OC(=O)c3cc(O)c(O)c(O)c3)c2)[C@H](OC(=O)c2cc(O)c(O)c(OC(=O)c3cc(O)c(O)c(O)c3)c2)[C@@H](OC(=O)c2cc(O)c(O)c(OC(=O)c3cc(O)c(O)c(O)c3)c2)[C@@H]1OC(=O)c1cc(O)c(O)c(OC(=O)c2cc(O)c(O)c(O)c2)c1)c1cc(O)c(O)c(OC(=O)c2cc(O)c(O)c(O)c2)c1 [TS052, Tannic acid] , give the reported Behavior of gene caused by administration of chemical substance, Gene No. 4973. −

For the compound shown here, Clc1ccc(C(c2ccc(Cl)cc2)C(Cl)(Cl)Cl)cc1 [TS016, Dichloro-diphenyl-trichloroethane] , give the reported Behavior of gene caused by administration of chemical substance, Gene No. 4973. −

For the compound shown here, Nc1ccc([N+](=O)[O-])cc1N [TS035, 4-Nitro-o-phenylenediamine] , give the reported Behavior of gene caused by administration of chemical substance, Gene No. 4973. −

For the compound shown here, O=C(c1ccccc1)C(O)c1ccccc1 (centres unmarked) [TS038, Benzoin] , give the reported Behavior of gene caused by administration of chemical substance, Gene No. 4973. +

For the compound shown here, IC(I)I [TS039, Iodoform] , give the reported Behavior of gene caused by administration of chemical substance, Gene No. 4973. −

###

Test system: mRNA expressed from the genes (A) to (D) in rat liver
protocol-description: Behavior of genes (mRNA expression level, oligo-DNA microarray) in rat liver after 28-day oral administration
Assay type: in vivo
reported-conditions: rat, in vivo
measurement-name: Behavior of gene caused by administration of chemical substance, Gene No. 3929

CC(=O)Nc1ccc(C(=O)CCl)cc1 [TS072, 4-(Chloroacetyl)acetanilide]; −
ClC(Cl)Cl [TS056, Chloroform]; +
OCCCl [TS032, 2-Chloroethanol]; −
Cl[C@H]1[C@H](Cl)[C@@H](Cl)[C@@H](Cl)[C@H](Cl)[C@H]1Cl [TS057, Lindane]; −

###

Test system: mRNA expressed from the genes (A) to (D) in rat liver
protocol-description: Behavior of genes (mRNA expression level, oligo-DNA microarray) in rat liver after 28-day oral administration
Format: in vivo
reported-conditions: (C), Unigene Rn.1647, defined direction −; rat liver, oral once daily 28 days
measurement-name: Behavior of gene caused by administration of chemical substance, Gene No. 1741

CCN(CC)N=O; +
COC(N)=O [TS029, Methyl carbamate]; +
CC(=O)Nc1ccc2c(c1)Cc1ccccc1-2; −
CC(C)[N+](=O)[O-]; −
O=NN1CCOCC1; −
CC(N)=O [TS067, Acetamide]; −
c1ccc2ncccc2c1; −
CN(C)N=O; −

For the molecule shown here, "Cc1ccc(N)cc1N" , give the reported Behavior of gene caused by administration of chemical substance, Gene No. 1741. −

For the molecule shown here, "O=NN1CCCCC1" , give the reported Behavior of gene caused by administration of chemical substance, Gene No. 1741. −

For the molecule shown here, "C1COCCO1" , give the reported Behavior of gene caused by administration of chemical substance, Gene No. 1741. +

For the molecule shown here, "c1ccoc1" , give the reported Behavior of gene caused by administration of chemical substance, Gene No. 1741. +

For the molecule shown here, "CCOC(N)=O" , give the reported Behavior of gene caused by administration of chemical substance, Gene No. 1741. −

For the molecule shown here, CC(=N)S [TS030, Thioacetoamide] , give the reported Behavior of gene caused by administration of chemical substance, Gene No. 1741. +

###

Tested on: mRNA expressed from the genes (A) to (D) in rat liver
protocol-description: Behavior of genes (mRNA expression level, oligo-DNA microarray) in rat liver after 28-day oral administration
Type: in vivo
reported-conditions: gene group (B), Unigene No. Rn.19329
Description: A test solution was prepared by dissolving each of the carcinogens and the non-carcinogens shown in Tables 2 to 6 in the corresponding solvent shown in Tables 2 to 6. […] The case where the expression level of mRNA in the carcinogen administration group or the non-carcinogen administration group is 1.5 times or more or 1/1.5 or less of the expression level of the corresponding mRNA expressed in the control group was determined to be significant. […]
measurement-name: Behavior of gene caused by administration of chemical substance, Gene No. 2045

// solved cases for Behavior of gene caused by administration of chemical substance, Gene No. 2045 follow
ClC(Cl)(Cl)Cl [TS003, Carbon tetrachloride]; +
ClC1=C(Cl)[C@]2(Cl)[C@@H]3[C@@H]4C[C@@H]([C@H]5O[C@@H]45)[C@@H]3[C@@]1(Cl)C2(Cl)Cl [TS017, Dieldrin]; +
O=c1c(O)c(-c2ccc(O)c(O)c2)oc2cc(O)cc(O)c12 [TS037, Quercetin]; −
O=C(OC[C@H]1O[C@@H](OC(=O)c2cc(O)c(O)c(OC(=O)c3cc(O)c(O)c(O)c3)c2)[C@H](OC(=O)c2cc(O)c(O)c(OC(=O)c3cc(O)c(O)c(O)c3)c2)[C@@H](OC(=O)c2cc(O)c(O)c(OC(=O)c3cc(O)c(O)c(O)c3)c2)[C@@H]1OC(=O)c1cc(O)c(O)c(OC(=O)c2cc(O)c(O)c(O)c2)c1)c1cc(O)c(O)c(OC(=O)c2cc(O)c(O)c(O)c2)c1 [TS052, Tannic acid]; −
Cc1cc(N)ccc1N.O=S(=O)(O)O [TS060, 2,5-Toluenediamine SO4]; −

For the compound shown here, O=C([O-])c1ccccc1.[Na+] [TS084, Sodium benzoate] , give the reported Behavior of gene caused by administration of chemical substance, Gene No. 2045. −

For the compound shown here, Cl.Cl.Nc1ccc(N)cc1 [TS059, p-Phenylenediamine 2HCl] , give the reported Behavior of gene caused by administration of chemical substance, Gene No. 2045. −

###

System: mRNA expressed from the genes (A) to (D) in rat liver
protocol-description: Behavior of genes (mRNA expression level, oligo-DNA microarray) in rat liver after 28-day oral administration
Assay type: in vivo
reported-conditions: rat, in vivo
measurement-name: Behavior of gene caused by administration of chemical substance, Gene No. 6742

// solved cases for Behavior of gene caused by administration of chemical substance, Gene No. 6742 follow
Cc1c(C)c2c(c(C)c1O)CC[C@@](C)(CCC[C@H](C)CCC[C@H](C)CCCC(C)C)O2 [TS062, α-Tocopherol (Vitamin E)]; +
Cl[C@H]1[C@H](Cl)[C@@H](Cl)[C@@H](Cl)[C@H](Cl)[C@H]1Cl [TS057, Lindane]; −
Cl[C@H]1[C@H](Cl)[C@H](Cl)[C@@H](Cl)[C@H](Cl)[C@H]1Cl [TS021, α-Hexachlorocyclohexane]; +
ClC(Cl)Cl [TS056, Chloroform]; +
OCCCl [TS032, 2-Chloroethanol]; −
Oc1cccc2cccnc12 [TS007, 8-Hydroxyquinoline]; −
O=C1N=C([O-])NC1(c1ccccc1)c1ccccc1.[Na+] [TS069, Phenytoin Na]; −

For the compound shown here, CC(=O)Nc1ccc(C(=O)CCl)cc1 [TS072, 4-(Chloroacetyl)acetanilide] , give the reported Behavior of gene caused by administration of chemical substance, Gene No. 6742. −
